Entry source: the nanobody polyreactivity screen of Harvey et al. (2022)

- Test Summary: yeast display, Sf9 membrane polyspecificity reagent, FACS + sequencing; frameworks hold sequencing errors
Value Kind: polyreactivity (PSR sort gate)

# annotated cases, reported polyreactivity (PSR sort gate) shown
QVQLVESGGGLVQAGGSLRLSCAASGSIIGSYAMGWYRQAPGKERELVAAISKSGGSTYYADSVKGRFTISRDNAKNTVYLQMNSLKPEDTAVYYCAARAYRYAYRAYDYWGQGTQVTVSS : high polyreactivity
QFQLEESGGGIVQAGGSLRLSCAASGSTFYYNAMGWYRQAPGKERDLVAAITGSGTGTNYADSVKGRFTISRDNAKITVYLQMNSLKTEDTAVYYCAADYVWRGDPINSYLSWYVYWGQGTQVTVSS : low polyreactivity
QVQLVESGGGLVQAGGSLSLSCAASGRIFPTYTMGWYRQAPGKERELVAAINRGGGSTYYADSVKGRFTISRDIAMNTVYLQMYSLKAEDTAVYYCNARTYYRSYGYDYCGQGTQVTVSS : low polyreactivity
QVQLVESGGGLVQAGGSLRLSCAASGSTFYIYAMGWYRQAPGKERELVAAITWSGGSTYYADSVKGRFTISRDNAKNTVYLQMNSLKPEDTAVYYCAAQVWYSKSPTVDVYFDYDYWGQGTQVTVSS : low polyreactivity

Items follow; give polyreactivity (PSR sort gate) for each.
1. QVQLVESGGGLVQAGGSLRLSCADSVSTFQPNAMGSYRQAPGKERELVAAISRGGSTKYAYSVKGRITISRDSAKNTVYLQMNSLKPEDTAVYYRAVVFYRHVGYSGYYYWGQGTQVTVSS
2. QVQLVESGGGLVQGGGSLRLTCAASGSIFHYYAMGWYRQAPGKERELVAAINSSGGSRTYYADSVKGRFTISRDNAKNTVYLQMNSLKPEDTAVYYCAADYRVVWRAYDYWGQGTQVTVSS

Completion:
1. low polyreactivity
2. low polyreactivity

Can you give me polyreactivity (PSR sort gate) for all of these, one by one?
1. QVQLVETGGGLVQAGGSLRLSCAASGRIFRFYDMGWYRQAPGQERELVATINPTGGSTSYADSVKGRFTISRDNAKNTVYLQMNSLNPEDTAVYYCAADSWYSVRKTWSRSGSFPFDYWGQGTQVTVSS
2. QVQLVESGGGLVQAGGSLRLSCAASGSTFRWNAMGWYRQAPGKERELVAAITRSGGSTYYADSVKGRFTISRDNAKNTVYLQMNSLKPEDTAVYYCAAGYYTARRIRSDYWGQGTQVTVSS
3. QVQLVESGGGLVQAGGSLRLSCAASGRTFPYYAMGWYRQAPGKERELVAAISSSGGSTYYADSVKGRFTISRDNAKNTVYLQMNSLKPEDTEVYYCAAVYQFIKWGDRYEYWGQGTQVTVSS
4. QVQLVESGGGLVQAGGSLRLSCAASGYTFEAYAMGWYRQAPGKERELVAAINYSGGSTYADSVKGRFTISRDNAKNTVYLQMNSLKPEDTAVYYCAAYGTKRYPYDYWGQGTQVTVSS

Completion:
high polyreactivity
high polyreactivity
high polyreactivity
low polyreactivity

Item: `QVQLVESGGGLVQAGGSLRLSCAASGSIFKWNAMGWYRQAPGKERELVASITRSGGSTYYADSVKGRFTISRDNAKNTVYLQMNSLKPEDTAVYYCARSYGWYRWAGYDYWGQGTQVTVSS` | polyreactivity (PSR sort gate): high polyreactivity
